Ref: ChEMBL document CHEMBL1955718

Tested on: Glycine max
ASSAY_DETAILS: Inhibition of soybean lipoxygenase using arachidonic acid as substrate at 50 uM
inhibition below 1% gives rule not met; inhibition at or above it gives rule met.

Record excerpt, results attached:
Cc1c(C(=O)N/N=C/c2cccs2)no[n+]1[O-]; rule met
O=C(N/N=C/c1ccc2no[n+]([O-])c2c1)c1cccnc1; rule not met

Request: Determine whether measured inhibition meets or exceeds 1% for `Cc1c(C(=O)N/N=C/c2ccccc2O)no[n+]1[O-]`
Response: rule met

Request: In plain terms: is recorded inhibition at least 1% for `Cc1c(C(=O)N/N=C/c2ccc(C(=O)O)cc2)no[n+]1[O-]` ?
Response: rule met

Request: Check the entry `Cc1c(C(=O)N/N=C/c2ccc(N(C)C)cc2)no[n+]1[O-]` : does inhibition equal or exceed 1%?
Response: rule not met

Request: Given the entry `O=C(O)c1ccc(/C=N/NC(=O)c2c(-c3ccccc3)no[n+]2[O-])cc1` , answer whether its inhibition meets or surpasses 1%.
Response: rule met
